system: acid secretion in pylorus-ligated rats; assay: Anti-secretory effect (histamine-stimulated gastric acid secretion) in pylorus-ligated rat; format: in vivo, male wistar rats; conditions: Rattus norvegicus, sc, 3 h; 2 mg/kg s.c., 30 min before histamine 3 mg/kg s.c.; n=5; * significant at 5%, ** at 1% vs control; read-out: inhibitory effect of acid secretion (%) at 2 mg/kg s.c.

# molecule, inhibition in vivo at 2 mg/kg (%)
data = [
    ("CNC(=NC#N)NCCCOc1ccc2[nH]c(CN3CCCC3)nc2c1 [Example 3]", 54),
    ("CN(C)Cc1nc2cc(OCCCNc3ncc(Cc4ccc5c(c4)OCO5)c(=O)[nH]3)ccc2[nH]1 [Example 62]", 84),
    ("O=c1[nH]c(NCCCOc2ccc3[nH]c(CN4CCCC4)nc3c2)ncc1Cc1cccnc1 [Example 67]", 93),
    ("C#CCNC1=NS(=O)(=O)N=C1NCCSCc1ccc2[nH]c(CN(C)C)nc2c1 [Example 110]", 68),
    ("CNC(=C[N+](=O)[O-])NCCCCOc1ccc2[nH]c(CN3CCCCC3)nc2c1 [Example 30]", 78),
    ("O=c1[nH]c(NCCCOc2ccc3[nH]c(CN4CCCCC4)nc3c2)ncc1Cc1ccc2c(c1)OCO2 [Example 64]", 76),
    ("CN(C)Cc1nc2cc(OCCCCNc3nc(N)nn3C)ccc2[nH]1 [Example 92]", 92),
    ("Nc1n[s+]([O-])nc1NCCCOc1ccc2[nH]c(CN3CCCCC3)nc2c1 (stereo not drawn) [Example 101]", 97),
    ("CN(C)Cc1nc2cc(CSCCNc3ncc(CN(C)C)c(=O)[nH]3)ccc2[nH]1 [Example 73]", 91),
    ("CN(C)Cc1nc2cc(CSCCNc3ncc(Cc4cccnc4)c(=O)[nH]3)ccc2[nH]1 [Example 76]", 102),
    ("C#CCNc1n[s+]([O-])nc1NCCSCc1ccc2[nH]c(CN(C)C)nc2c1 (stereo not drawn) [Example 109]", 74),
    ("CN(C)Cc1nc2cc(OCCCNc3ncc(CN(C)C)c(=O)[nH]3)ccc2[nH]1 [Example 60]", 56),
    ("CN(C)Cc1nc2cc(OCCCNc3nnc(Cc4cccnc4)c(=O)[nH]3)ccc2[nH]1 [Example 83]", 78),
    ("CNC(=NC#N)NCCCSCc1ccc2[nH]c(CN(C)C)nc2c1 [Example 37]", 38),
    ("O=c1[nH]c(NCCCOc2ccc3[nH]c(CN4CCCC4)nc3c2)nnc1Cc1cccnc1 [Example 84]", 75),
    ("CN(C)Cc1nc2cc(OCCCNc3nc(N)nn3C)ccc2[nH]1 [Example 91]", 81),
    ("CNC(=NC#N)NCCCCOc1ccc2[nH]c(CN(C)C)nc2c1 [Example 2]", 75),
    ("CCNc1n[s+]([O-])nc1NCCSCc1ccc2[nH]c(CN(C)C)nc2c1 (stereo not drawn) [Example 108]", 77),
]
